The reported measurements were obtained from patent US20210301025A1.

- MEASURED_TARGET: EGFR (form used in the assay not stated) (human, UniProt P00533 25-645, limits assumed)
- PROTOCOL: ELISA, NEM conjugate, 10 nM
EXPERIMENTAL_READOUT: binding relative to P54AR4-83v2 parent
Just the number plus its unit, please.

• P54AR4-83v2 S52C, NEM conjugate (designed binder, not shown: small tags and cut ends, N-ethyl maleimide (NEM) on Cys 52) LPAPKNLVVSEVTEDSARLSWDDPWAFYESFLIQYQESEKVGEAIVLTVPGCERSYDLTGLKPGTEYTVSIYGVHNVYKDTNMRGLPLSAIFTT = 0.78 ratio
• P54AR4-83v2 H75C, NEM conjugate (designed binder, not shown: small tags and cut ends, N-ethyl maleimide (NEM) on Cys 75) LPAPKNLVVSEVTEDSARLSWDDPWAFYESFLIQYQESEKVGEAIVLTVPGSERSYDLTGLKPGTEYTVSIYGVCNVYKDTNMRGLPLSAIFTT = 0.07 ratio
• P54AR4-83v2 P63C, NEM conjugate (designed binder, not shown: small tags and cut ends, N-ethyl maleimide (NEM) on Cys 63) LPAPKNLVVSEVTEDSARLSWDDPWAFYESFLIQYQESEKVGEAIVLTVPGSERSYDLTGLKCGTEYTVSIYGVHNVYKDTNMRGLPLSAIFTT = 0.95 ratio

Consider the record given below.
-- ask I have this binder here, P54AR4-83v2 N82C, NEM conjugate (designed binder, not shown: small tags and cut ends, N-ethyl maleimide (NEM) on Cys 82) LPAPKNLVVSEVTEDSARLSWDDPWAFYESFLIQYQESEKVGEAIVLTVPGSERSYDLTGLKPGTEYTVSIYGVHNVYKDTCMRGLPLSAIFTT , and I need its recorded binding relative to P54AR4-83v2 parent.
-- reply 0.56 ratio
